Conditions: in n-octanol, 308.65 K
quantity.name: solubility (mole fraction)
Answer as a number with no unit attached.

Name the reported solubility (mole fraction) value associated with the compound Cc1ccc(C(=O)O)cc1 0.0789

====

Settings: in n-octanol, 302.65 K
quantity.name: solubility (mole fraction)
Answer as a number with no unit attached.

Name the reported solubility (mole fraction) value associated with the compound Cc1ccccc1C(=O)O 0.19

====

Conditions: in n-octanol, 321.15 K
quantity.name: solubility (mole fraction)

Name the reported solubility (mole fraction) value associated with the molecule O=C(O)c1ccccc1[N+](=O)[O-] 0.161

====

Settings: in n-octanol, 314.05 K
quantity.name: solubility (mole fraction)
Answer as a number with no unit attached.

Name the reported solubility (mole fraction) value associated with the compound Cc1ccccc1C(=O)O 0.25
